Source of measurements: ChEMBL document CHEMBL4354881

Target: Chromatin remodeling regulator CECR2 (Homo sapiens, UniProt Q9BXF3)
Sequence (Q9BXF3 whole entry, the tested form may be a part): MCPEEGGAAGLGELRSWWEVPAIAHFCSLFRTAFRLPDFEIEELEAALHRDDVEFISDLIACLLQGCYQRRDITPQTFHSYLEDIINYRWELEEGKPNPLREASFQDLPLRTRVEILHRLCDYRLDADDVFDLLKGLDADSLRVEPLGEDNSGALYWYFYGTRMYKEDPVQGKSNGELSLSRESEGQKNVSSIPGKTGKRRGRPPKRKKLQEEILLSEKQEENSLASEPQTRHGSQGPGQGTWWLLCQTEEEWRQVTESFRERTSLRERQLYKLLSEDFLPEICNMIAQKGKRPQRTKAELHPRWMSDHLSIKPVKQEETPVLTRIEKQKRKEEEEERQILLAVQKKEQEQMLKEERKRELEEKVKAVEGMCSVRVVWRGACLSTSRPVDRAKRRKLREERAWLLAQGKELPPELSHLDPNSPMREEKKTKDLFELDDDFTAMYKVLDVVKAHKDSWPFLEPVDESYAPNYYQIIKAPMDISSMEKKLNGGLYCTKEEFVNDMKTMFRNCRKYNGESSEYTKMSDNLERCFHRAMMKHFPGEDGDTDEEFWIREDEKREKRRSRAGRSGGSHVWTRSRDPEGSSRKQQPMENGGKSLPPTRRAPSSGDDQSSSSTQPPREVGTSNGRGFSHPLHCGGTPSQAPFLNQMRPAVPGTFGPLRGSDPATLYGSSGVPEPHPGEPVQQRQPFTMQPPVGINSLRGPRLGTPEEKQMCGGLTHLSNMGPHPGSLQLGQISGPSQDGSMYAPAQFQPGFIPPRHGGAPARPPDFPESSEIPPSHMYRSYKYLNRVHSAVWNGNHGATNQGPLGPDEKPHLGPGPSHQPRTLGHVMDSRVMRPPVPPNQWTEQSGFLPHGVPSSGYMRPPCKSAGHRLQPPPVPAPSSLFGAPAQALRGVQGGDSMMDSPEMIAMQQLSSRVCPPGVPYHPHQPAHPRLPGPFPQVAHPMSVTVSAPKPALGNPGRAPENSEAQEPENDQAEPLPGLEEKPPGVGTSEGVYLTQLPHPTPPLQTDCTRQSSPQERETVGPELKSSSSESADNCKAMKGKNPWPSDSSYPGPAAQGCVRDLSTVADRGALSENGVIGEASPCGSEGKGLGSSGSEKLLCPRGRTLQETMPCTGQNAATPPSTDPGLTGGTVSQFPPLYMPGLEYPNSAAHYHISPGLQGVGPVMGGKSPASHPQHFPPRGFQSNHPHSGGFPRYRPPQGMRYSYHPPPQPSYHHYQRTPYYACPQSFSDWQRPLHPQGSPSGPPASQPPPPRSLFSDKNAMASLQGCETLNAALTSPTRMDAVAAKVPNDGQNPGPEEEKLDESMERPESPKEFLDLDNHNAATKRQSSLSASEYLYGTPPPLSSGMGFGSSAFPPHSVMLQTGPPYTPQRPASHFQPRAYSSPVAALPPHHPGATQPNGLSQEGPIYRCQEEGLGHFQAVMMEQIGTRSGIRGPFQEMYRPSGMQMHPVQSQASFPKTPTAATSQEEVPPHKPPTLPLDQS
Test: Displacement of Alexa Fluor 647-labeled GSK tracer from FLAG-6His-Tev-fused CECR2 (424 to 543 residue) (unknown origin) measured after 15 mins by TR-FRET assay
test readout: IC50 (µM)

Observe how each entry below is paired with its result.
[
  {
    "compound": "COCc1cnnn1CC(=O)Nc1ccc(Br)c(S(=O)(=O)N2CC[C@H](C)C2)c1",
    "test readout": "IC50",
    "assay value": 0.251
  },
  {
    "compound": "O=C(CN1C(=O)CNC1=O)Nc1ccc(Cl)c(S(=O)(=O)N2CCCCC2)c1",
    "test readout": "IC50",
    "assay value": 31.6
  }
]

[P] CN(C)CC1CCN(S(=O)(=O)c2cc(NC(=O)CN3C(=O)CNC3=O)ccc2Cl)C1 (stereo not given)
[Q] C[C@@H]1CN(S(=O)(=O)c2cc(NC(=O)CN3C(=O)CNC3=O)ccc2Cl)C[C@H]1C (racemic)
input: Consider entries P and Q . Which has the numerically lower IC50? Could you answer with the label of the item you picked?
output: Q
